Recorded values, source patent US20230219965A1.

Each entry below carries its recorded half-life at 1 μM.
Test: Liver microsomal metabolic stability, rat liver microsomes (RLM)
Settings: rat, liver microsomes, t1/2 (min) in RLM, 1 μM compound, 1 mg/mL microsomes, NADPH

* CCn1cc(C(F)(F)F)nc1-c1ccc(CN2C(=O)C(N(C)C)Cn3nc(-c4c(Cl)cnn4C(C)C)cc32)cc1 (stereo not shown) | < 25 min
* CCn1cc(C(F)(F)F)nc1-c1ccc(N[C@@H]2CCCn3nc(-c4c(OC)ncnc4C4CC4)cc32)cc1 (single isomer, unassigned) | > 25 min
* COc1ncnc(C2CC2)c1-c1cc2n(n1)CCC(=O)N2Cc1ccc(-n2nc(C#N)cc2OC)c(F)c1 | > 25 min
* COc1ncnc(C2CC2)c1-c1nc2n(n1)CCC(=O)N2[C@@H](C)c1ccc(-n2nc(C(F)(F)F)cc2C)c(F)c1 | > 25 min
* COc1ncnc(C2CC2)c1-c1nc2n(n1)CCC(=O)N2[C@@H](C)c1ccc(-c2nc(C(F)(F)F)cn2C2CC2)cc1 | > 25 min
* COc1ncnc(C2CC2)c1-c1cc2n(n1)CCC(=O)N2Cc1ccc(-c2nc(C(F)(F)F)cn2C(C)C)cc1 | > 25 min

Shifting focus to the compound that follows.
Q: half-life at 1 μM lookup needed for CCn1cc(C(F)(F)F)nc1-c1ccc(N(CCO)C2CCCn3nc(-c4c(Cl)cnn4C(C)C)cc32)cc1F (stereo not shown) , thanks.
A: < 25 min
